target: RBD domain of S protein of SARS-CoV-2 (Severe acute respiratory syndrome coronavirus 2, UniProt P0DTC2); test: biochemical; type: binding
endpoint label: pKd
Note on units: pKd is unitless, being -log10 of a concentration expressed in mol/L.

{"compound": "C=C[C@@H]1C2=CCOC(=O)C2=CO[C@H]1O[C@@H]1O[C@H](CO)[C@@H](O)[C@H](O)[C@H]1O", "endpoint label": "pKd", "reported result": 4.53}

// moving on: another record for pKd
Problem: Reported pKd, compound Nc1ncnc2c1ncn2[C@@H]1O[C@H](CO)C[C@H]1O [CDCP, Cordycepin] : ____
Result: 4.69
